Tested on: SW-620
testName: NCI tumour cell line growth inhibition, 48 h
Activity calls are given as the source filed them. No stated cut-off is given here; in the data, active = GI50 up to about 1.1 µM and inactive = higher.
Outcomes: active, inactive

CC1=NNC(=S)NCCCN2CCN(CCCNC(=S)NN=C(C)C=NNC(=S)NCCCN3CCN(CCCNC(=S)NN=C1)CC3)CC2
inactive
CC(C)C1CC(CO)(CNc2cc(Cl)nc(N)n2)C1 (stereo not given)
inactive
COC(=O)Cc1cccc2c1CCC2=O
inactive
O=C1c2c(Br)sc(Br)c2C(=O)C1(O)O
inactive
O=[N+]([O-])c1oc2ccc3ccccc3c2c1CCO
inactive
CCCCCCCCCCCCCP(=O)(O)NCC(N)=O
inactive
O=C1OCC2OC(=O)c3cc(O)c(O)c(O)c3-c3c(O)c(O)c(O)c4c3C(=O)OC(C2OC(=O)c2cc(O)c(O)c(O)c2-c2c1cc(O)c(O)c2O)C1OC(=O)C2C4=C(O)C(=O)C23Oc2cc(O)c4c(c2[C@H]13)O[C@H](c1ccc(O)c(O)c1)[C@@H](O)C4 (stereo not given in full)
inactive
CCCN1CN(C(C(=O)N[C@@H]2C(=O)N3C(C(=O)O)=C(C)CSC23)c2ccc(O)cc2)CSC1=S (stereo not given in full)
inactive
COC(=O)CC1(O)C(=O)OCc2c1cc1n(c2=O)Cc2c-1nc1ccccc1c2OC (stereo not given)
active
CSc1nsc(-c2ccccc2)[s+]1.[O-][Cl+3]([O-])([O-])[O-]
inactive
O=[N+]([O-])c1c(F)c(F)c2c(c1F)N(CCCCCl)c1ccccc1S2
inactive
O=[N+]([O-])c1ccc(N/N=C/CC(O)(C(F)(F)F)C(F)(F)F)c([N+](=O)[O-])c1
inactive
O=C(O)c1ccc2c(O)c(O)ccc2c1
inactive
O=[N+]([O-])c1ccc2sc(/C=N/c3cnccn3)cc2c1
inactive
O=C(CCc1nnc2s/c(=C\c3ccc4c(c3)OCO4)c(=O)n12)Nc1cc(Cl)ccc1Cl
inactive
COc1ccc(-c2cc(-c3ccco3)c(C#N)c(=S)n2C2OC(COC(C)=O)C(OC(C)=O)C(OC(C)=O)C2OC(C)=O)cc1 (stereo not given)
inactive
N#Cc1ccc(Nc2cnc3cc(N)ccc3n2)cc1
inactive
COc1cccc(-c2c(-c3ccccc3)[nH]c(C)c2C(=O)ONC(=O)c2ccccc2)c1
inactive
CCc1nc(N)nc(N)c1-c1ccc2c(c1)nnn2CCc1ccccc1
inactive
c1ccc(P(=Nc2ccccc2N=P(c2ccccc2)(c2ccccc2)c2ccccc2)(c2ccccc2)c2ccccc2)cc1
inactive
CCc1cccc(C(C)C)c1N1C(=O)C(=O)C(c2nc3ccccc3s2)C(=O)C1=O
inactive
CC/C(=N/O)C(C)C(=O)CCC(=O)Nc1ccc(Cl)cc1 (stereo not given)
inactive
O=C1N/C(=N/N=C/C(O)C(O)C(O)C(O)CO)N/C1=C\c1c[nH]c2ccccc12 (stereo not given)
inactive
Cc1nc2ccccc2c(=O)n1NC(=O)c1ccccn1
inactive
Cc1ccc(S(=O)(=O)Nc2nnc(S(N)(=O)=O)s2)cc1
inactive
Clc1ccc(C(c2ccccc2Cl)C(Cl)Cl)cc1 (stereo not given) [MITOTANE]
inactive
N=C(N)NS(=O)(=O)c1ccc(NCc2cccc3c(=O)c4ccc(Cl)cc4oc23)cc1
inactive
CNC(=O)NCCCCC(NC(=O)OCc1ccccc1)C(=O)OCc1ccccc1 (stereo not given)
inactive
CC1(C)N=C(N)N=C(N)N1c1cccc(Cl)c1
inactive
Cc1cc(N(CCC#N)CCC#N)ccc1/C=C1N=C(/C=C\c2ccccc2)OC\1=O
inactive
Cc1cc(Cl)ccc1NC(=O)CC1SC(NC(=O)c2ccccc2Cl)=NC1=O (stereo not given)
inactive
N/N=C(\C(=O)Nc1ccc(Cl)cc1Cl)C(c1cnc2ccccc2n1)[N+](=O)[O-] (stereo not given)
inactive
N#CC1=C(N)Oc2c(ccc3cccnc23)C1c1ccccc1 (stereo not given)
active
CCOC(=O)c1nc(SC)sc1NC(=O)c1ccc(OC)cc1
inactive
CCOc1cc2c(cc1O)/C(=N\OC)C[C@@H]1[C@@H]2CC[C@]2(C)[C@@H](O)CC[C@@H]12
active
Cn1c(=O)cc(/N=N\c2ccc(Cl)c(Cl)c2)[nH]c1=O
inactive
COC(OC)C1OC(CO)C(n2cc(C)c(=O)[nH]c2=O)C1O (stereo not given)
inactive
Cc1cn2cc(-c3ccncc3)nc2s1
inactive
Cn1c(=O)c2[nH]c(/N=N\n3ccc4ccccc43)nc2n(C)c1=O
inactive
CCN(CC)CCNc1ccc(CO)c2sc3ccccc3c(=O)c12 [HYCANTHONE]
inactive
